Record form. Attribute: GI50. Fill in for each entry.
System: PC-3 prostate
experimentDescription: NCI tumour cell line growth inhibition, 48 h

input: GI50 lookup needed for COc1ccc2c(c1)CCC1C2CCC2(C)C(NC(=O)CCCCC3CCSS3)CCC12 (stereo not given) , thanks.
output: 7.18 µM

input: GI50 lookup needed for `c1ccc(-c2nc3ccccc3[nH]2)c(OCCCCCOc2ccccc2-c2nc3ccccc3[nH]2)c1` , thanks.
output: 7.64 µM

input: GI50 lookup needed for `COc1cc(/C=C/C(=O)/C=C/c2ccc(-n3ccnc3)cc2)ccc1O` , thanks.
output: 2.19 µM

input: GI50 lookup needed for COc1ccc(C2CC(c3cccc(Nc4ccncc4)c3)=NN2c2ccccc2)cc1 (stereo not given) , thanks.
output: 1.68 µM

input: GI50 lookup needed for `COc1ccc(-c2nc3sccn3c2/C=C/C(=O)c2cc(OC)c(OC)c(OC)c2)cc1` , thanks.
output: 2.97 µM
